Values were extracted from patent US9447084B2.

Each entry below carries its reported EC50.
# Tested on: Ctenocephalides felis
# method.description: Efficacy of compounds against fleas following ingestion (membrane feeding on treated bovine blood)
# Assay type: in vivo
# assay.context: 10 adult Ctenocephalides felis feeding on treated bovine blood; assessment at 72 hours after application vs untreated controls
measured.attribute: EC50

[[record]]
molecule = "Cc1cc(C2=NOC(c3cc(Cl)cc(C(F)(F)F)c3)(C(F)(F)F)C2)ccc1C(=O)N1CC(=O)N(CC(F)(F)F)C1 (stereo not drawn)"
assay_system = "Ctenocephalides felis"
observed_result = "≤ 0.1 µg/mL"

[[record]]
molecule = "O=C1CN(C(=O)c2ccc(C3=NOC(c4cc(Cl)cc(C(F)(F)F)c4)(C(F)(F)F)C3)cc2C(F)(F)F)CN1CCC(F)(F)F (stereo not drawn)"
assay_system = "Ctenocephalides felis"
observed_result = "≤ 1 µg/mL"

[[record]]
molecule = "Cc1cc(C2=NOC(c3cc(Cl)c(F)c(Cl)c3)(C(F)(F)F)C2)ccc1C(=O)N1CC(=O)N(CCC(F)(F)F)C1 (stereo not drawn)"
assay_system = "Ctenocephalides felis"
observed_result = "≤ 0.1 µg/mL"

[[record]]
molecule = "Cc1cc(C2=NOC(c3cc(Cl)cc(Cl)c3)(C(F)(F)F)C2)ccc1C(=O)NN1CCN(CC(F)(F)F)C1=O (stereo not drawn)"
assay_system = "Ctenocephalides felis"
observed_result = "≤ 1 µg/mL"

[[record]]
molecule = "O=C(NN1CCCN(CC(F)(F)F)C1=O)c1ccc(C2=NOC(c3cc(Cl)cc(Cl)c3)(C(F)(F)F)C2)cc1C(F)(F)F (stereo not drawn)"
assay_system = "Ctenocephalides felis"
observed_result = "≤ 1 µg/mL"

[[record]]
molecule = "Cc1cc(C2=NOC(c3cc(Cl)cc(C(F)(F)F)c3)(C(F)(F)F)C2)ccc1C(=O)N1CC(=O)N(CCC(F)(F)F)C1 (stereo not drawn)"
assay_system = "Ctenocephalides felis"
observed_result = "≤ 0.1 µg/mL"

